# assay-name: Pharmacokinetic profile in rat plasma following oral administration
# Assay type: in vivo
# recorded-conditions: female, rat, po, 0.2 mg/kg, individual rats
measurement-kind: AUC(0-inf) (ng·h/mL)
Number only, in ng·h/mL; omit the unit.

A selection of reference data follows.
| compound | measurement-kind | result-number |
| --- | --- | --- |
| [2H]c1c([2H])c([2H])c(N(CC)C(=O)c2c(O)c3c(Cl)cccc3n(C)c2=O)c([2H])c1[2H] | AUC(0-inf) | 19300 |
| [2H]c1c([2H])c([2H])c(N(C(=O)c2c(O)c3c(Cl)cccc3n(C)c2=O)C([2H])([2H])C([2H])([2H])[2H])c([2H])c1[2H] | AUC(0-inf) | 15800 |
| CCN(C(=O)c1c(O)c2c(Cl)cccc2n(C)c1=O)c1ccccc1 [Laquinimod, reference compound] | AUC(0-inf) | 14700 |

Pending compound:
stdin: Let me know recorded AUC(0-inf) for [2H]C([2H])([2H])C([2H])([2H])N(C(=O)c1c(O)c2c(Cl)cccc2n(C)c1=O)c1ccccc1 , thanks.
stdout: 10000
